system: CL; assay: 48 h incubation with the salts: cell fluorescence, living cells, multiplication coefficient (Table 1); format: cell-based; conditions: 48 hs, 50 mcg/ml
Metric: Percentage of living cells /P %/ (%)
Field: numeric (%). Do not append units.

- Compound: "CC1=C(CCC(=O)O)c2cc3[nH]c(cc4nc(cc5[nH]c(cc1n2)c(C(C)NC(CCCCN)C(=O)O)c5C)C(C(C)NC(CCCCN)C(=O)O)=C4C)c(C)c3CCC(=O)O.N=C(N)NCCC[C@H](N)C(=O)O.N=C(N)NCCC[C@H](N)C(=O)O (stereo not drawn) [PP/Lys/2 /Arg/2, l-arginine di/N-lysyl/-protoporphyrinate]"
  Tested on: "CL"
  Unit spec: "%"
  Percentage of living cells /P %/: 30
- Compound: "CC1=C(CCC(=O)O)c2cc3[nH]c(cc4nc(cc5[nH]c(cc1n2)c(C(C)NC(CS)C(=O)O)c5C)C(C(C)NC(CS)C(=O)O)=C4C)c(C)c3CCC(=O)O.N=C(N)NCCC[C@H](N)C(=O)O.N=C(N)NCCC[C@H](N)C(=O)O (stereo not drawn) [PP/Cys/2 /Arg/2]"
  Tested on: "CL"
  Unit spec: "%"
  Percentage of living cells /P %/: 30

Moving on to the next compound.
Record summary for CC1=C(CCC(=O)O)c2cc3[nH]c(cc4nc(cc5[nH]c(cc1n2)c(C(C)NC(C)C(=O)O)c5C)C(C(C)NC(C)C(=O)O)=C4C)c(C)c3CCC(=O)O.N=C(N)NCCC[C@H](N)C(=O)O.N=C(N)NCCC[C@H](N)C(=O)O (stereo not drawn) [PP/Ala/2 /Arg/2] : reported Percentage of living cells /P %/ = 30

Where do the numbers come from? From patent US5451599A.
